# Tested on: RARb:RXRa (NR concentration 270 nM, RXRa partner concentration 90 nM)
# TEST: PBM binding z-score (relative to random genomic background probes); higher = stronger binding; sequences stand for … in GC…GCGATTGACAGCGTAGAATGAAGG
REPORTED_ENDPOINT: PBM binding z-score
Answers are plain numbers.

A selection of reference data follows.
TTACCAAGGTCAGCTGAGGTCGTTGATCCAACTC :: 5.06
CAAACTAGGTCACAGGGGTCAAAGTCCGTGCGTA :: 5.46
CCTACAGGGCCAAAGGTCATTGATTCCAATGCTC :: 4.63

Please go through the list and note PBM binding z-score for each sequence.
1. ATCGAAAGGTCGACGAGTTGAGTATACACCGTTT
2. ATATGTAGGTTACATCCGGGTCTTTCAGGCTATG
3. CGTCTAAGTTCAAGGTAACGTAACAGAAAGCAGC
4. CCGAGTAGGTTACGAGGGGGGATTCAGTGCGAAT
5. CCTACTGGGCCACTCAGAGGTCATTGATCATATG
6. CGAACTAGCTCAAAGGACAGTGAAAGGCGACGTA
7. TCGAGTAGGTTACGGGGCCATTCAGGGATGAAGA
8. TCTAGCTGGTCACGGAGGTCACACACGACGGGTA

1. 3.7
2. 1.21
3. 3.79
4. 1.84
5. 3.28
6. 0.694
7. 1.44
8. 3.81

State PBM binding z-score on RARb:RXRa (NR concentration 270 nM, RXRa partner concentration 90 nM). Entry: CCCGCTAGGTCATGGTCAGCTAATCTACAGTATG
3.83

----------
# Tested on: PPARg:RXRa 90nM:30nM, anti-RXR (NR concentration 90 nM, RXRa partner concentration 30 nM)
# TEST: PBM binding z-score (relative to random genomic background probes); higher = stronger binding; sequences stand for … in GC…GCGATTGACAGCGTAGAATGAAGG
Kindly supply the reported PBM binding z-score values for the records listed here.
Give bare numbers.

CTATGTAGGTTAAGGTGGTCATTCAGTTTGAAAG :: 4.28

Return reported PBM binding z-score values for all items listed beneath this line.
1. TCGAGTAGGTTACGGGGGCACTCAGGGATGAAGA
2. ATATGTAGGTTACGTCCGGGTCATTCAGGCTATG
3. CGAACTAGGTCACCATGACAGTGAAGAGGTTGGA

[5.14, 4.48, 6.23]

----------
# Tested on: RXRa DBDmut IVT, anti-RXR (DBD mutation: RXRa K156A/R161A, NR concentration 90 nM)
# TEST: PBM binding z-score (relative to random genomic background probes); higher = stronger binding; sequences stand for … in GC…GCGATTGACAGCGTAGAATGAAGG
Kindly state PBM binding z-score for each of the entries shown.

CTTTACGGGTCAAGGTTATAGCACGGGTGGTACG :: 1.93
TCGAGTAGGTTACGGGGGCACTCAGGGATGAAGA :: 1.2
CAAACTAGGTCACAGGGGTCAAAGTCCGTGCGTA :: 3.6
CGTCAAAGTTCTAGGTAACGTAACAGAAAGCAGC :: 0.31
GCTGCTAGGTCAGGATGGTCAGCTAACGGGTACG :: 0.0831

# next sequence below
For the sequence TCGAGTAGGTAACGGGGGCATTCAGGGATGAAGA , give its measured PBM binding z-score value.
1.75
